test system: HeLa cell line; assay: In vitro antitumor MTT assay, HeLa; assay type: cell-based; conditions: Homo sapiens; read-out: IC50 (µM) HeLa
assayEndpoint: IC50
Write down the value, and be sure its unit follows.

Examples with answers:
COc1ccc(-c2cc(-c3ccc(C)cc3)[nH]c(=O)c2C#N)cc1OC1CCCC1 [Compound 12b] :: 45.7 µM
COc1ccc(-c2cc(-c3ccccc3)[nH]c(=O)c2C#N)cc1OC1CCCC1 [Compound 12a] :: 65.7 µM

Okay, now this molecule:
Task item: What IC50 appears in the records for this molecule with HeLa cell line? COc1ccc(C=C2CN(C)CCC2=O)cc1OC1CCCC1 [Compound 4a]
Reply: 7.24 µM
